test system: E18 rat cortical neuron-glia co-culture; experiment: fiber score / MBP score (myelination specific beyond OL differentiation) (ratio); higher = more myelination-specific MBP alignment; conditions: 1 µM; treatment time: 8 days (DIV5-DIV13)
Hi, to clarify the labels: label 1 covers fiber score / MBP score from 0.7 upward, label 0 covers anything below 0.7.

Please review the entries below; each comes with its answer.
>  <compound>
c1ccc(Cn2ccnc2)cc1 [1-Benzylimidazole]

>  <assigned.label>
label 0

$$$$
>  <compound>
CC(C)c1cccc(C(C)C)c1O [Propofol]

>  <assigned.label>
label 1

$$$$
>  <compound>
CC[C@]1(O)CC[C@H]2[C@@H]3CCC4=CCCC[C@@H]4[C@H]3CC[C@@]21C [Ethylestrenol]

>  <assigned.label>
label 0

$$$$

Ask | Decide: is the reported value of fiber score / MBP score for O=C(O)C(Cl)Cl [Dichloroacetic Acid] equal to or greater than 0.7?
Reply | label 1

Ask | Has C[C@]12CCC(=O)C=C1CC[C@@H]1[C@@H]2CC[C@@]2(C)[C@H]1CC[C@]2(C)O [Methyltestosterone] a recorded fiber score / MBP score greater than or equal to 0.7?
Reply | label 0

----------
tested on: E18 rat cortical neuron-glia co-culture; assay: myelination (MBP fiber length per Olig2+ nucleus), % of 1 µM DAPT response (DMSO = 0) (% of DAPT); higher = more myelination, active = 50 or more; settings: 5 µM; treatment time: 8 days (DIV5-DIV13)
observed.property: myelination
Please give only the number in your answer, with no unit.

Solved entries:
>  <compound>
C=C1C[C@@H]2[C@H](CC[C@]3(C)C(=O)CC[C@@H]23)[C@@]2(C)C=CC(=O)C=C12 [Exemestane]

>  <myelination>
-11.8

$$$$
>  <compound>
CCOC(=O)c1cncn1[C@H](C)c1ccccc1 [Etomidate]

>  <myelination>
6.64

$$$$
>  <compound>
CN1CCN(C(=O)O[C@H]2c3nccnc3C(=O)N2c2ccc(Cl)cn2)CC1 [Eszopiclone]

>  <myelination>
15.5

$$$$
>  <compound>
COc1cc(N)c(Cl)cc1C(=O)NC1CN2CCC1CC2 (centres undefined) [Zacopride]

>  <myelination>
-0.361

$$$$
>  <compound>
C[C@]12CCC(=O)C[C@@H]1CC[C@@H]1[C@@H]2CC[C@@]2(C)[C@H]1CC[C@]2(C)O [Mestanolone]

>  <myelination>
-14.6

$$$$

Ask | Field request: myelination | item: CN1C(=O)COc2c(C(=O)NC3CN4CCC3CC4)cc(Cl)cc21 (centres undefined) [Azasetron]
Reply | 2.28

Ask | I would be grateful if you could share the reported myelination for CN1C(=O)CN=C(c2ccccc2)c2cc(Cl)ccc21 [Diazepam] .
Reply | -9.05

Ask | Consider the compound shown here: O=C(O)CCCc1ccc(N(CCCl)CCCl)cc1 [Chlorambucil] What is its recorded myelination?
Reply | -17

Ask | Record request: myelination value, item C[C@]12CC[C@H]3[C@@H](CCC4=CC(=O)CC[C@@]43C)[C@@H]1CC[C@@H]2O [Testosterone]
Reply | -15.4

----------
test system: E18 rat cortical neuron-glia co-culture; experiment: fiber score / MBP score (myelination specific beyond OL differentiation) (ratio); higher = more myelination-specific MBP alignment; conditions: 1 µM; treatment time: 8 days (DIV5-DIV13)
Here the recorded fiber score / MBP score is given for each entry.
Respond with the number and no other words.

>  <compound>
C[C@H]1CCC[C@H](O)CCCCCc2cc(O)cc(O)c2C(=O)O1

>  <fiber score / MBP score>
0.788

$$$$
>  <compound>
CN1C(=O)CN=C(c2ccccc2)c2cc(Cl)ccc21

>  <fiber score / MBP score>
0.832

$$$$
>  <compound>
CC(C)N(CCC(C(N)=O)(c1ccccc1)c1ccccn1)C(C)C (stereo not given) [Disopyramide]

>  <fiber score / MBP score>
0.453

$$$$
>  <compound>
Oc1cc2c(cc1O)[C@H]1c3ccccc3CN[C@@H]1CC2 (racemic) [Dihydrexidine]

>  <fiber score / MBP score>
1.05

$$$$

Next item in the queue.
Ask | Could you share which fiber score / MBP score value was measured for CCOC(=O)c1cncn1[C@H](C)c1ccccc1 [Etomidate] ?
Reply | 0.772
